# experimentSummary: recombinant UMI read abundance after kanamycin selection (control-corrected) (log10(CPM+1)); higher = more efficient recombination; extreme values may be limits of the assay; sequences stand for … in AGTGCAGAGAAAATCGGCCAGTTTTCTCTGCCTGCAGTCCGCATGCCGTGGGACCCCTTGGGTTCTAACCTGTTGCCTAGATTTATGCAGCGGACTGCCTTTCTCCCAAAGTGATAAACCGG…AGGTTGGTTTCACT; site = the 11-nt donor;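 also: IS621 bridge recombinase in Escherichia coli cells against a fixed T5 target plasmid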
Quick reference for recombinant UMI read abundance (log10) among some sequences
Lab note: write the figure by itself, no unit.

[
  {
    "polymerSequence": "CGTGGAACATGGACCGGTTTTCCCGGTAATCCGTATTTGAT (site CGTGGAACTAT)",
    "recombinant UMI read abundance (log10)": 2.14
  },
  {
    "polymerSequence": "AACTATACATGGACCGGTTTTCCCGGTAATCCGTATTTGGT (site AACTATACTAC)",
    "recombinant UMI read abundance (log10)": 1.26
  }
]

### Prompt Fill blank: measured recombinant UMI read abundance (log10) of the sequence CTGTAGGCATGGACCGGTTTTCCCGGTAATCCGTATTTGGG (site CTGTAGGCTCC) is ____.
### Response 0.27

### Prompt Name the recorded recombinant UMI read abundance (log10) for GCTACGTCATGGACCGGTTTTCCCGGTAATCCGTATTTGTT (site GATACGTCTAA) .
### Response 0.00849

* * *

# experimentSummary: recombinant UMI read abundance after kanamycin selection (control-corrected) (log10(CPM+1)); higher = more efficient recombination; extreme values may be limits of the assay; sequences stand for … in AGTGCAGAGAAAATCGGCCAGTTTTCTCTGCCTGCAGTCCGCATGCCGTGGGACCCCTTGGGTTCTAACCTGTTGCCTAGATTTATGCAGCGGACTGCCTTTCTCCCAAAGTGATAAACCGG…AGGTTGGTTTCACT; site = the 11-nt donor
Field: class. Source value: recombinant UMI read abundance (log10). Ranges: class 0 = under 0.008, class 1 = from 0.008 up to 0.5, class 2 = 0.5 and over

Past entries and their recorded results:
[
  {
    "polymerSequence": "AATGTGTCATGGACCGGTTTTCCCGGTAATCCGTATTTGCC (site AATGTGTCTGC)",
    "assignedLabel": "class 0"
  },
  {
    "polymerSequence": "AAGCACGCATGGACCGGTTTTCCCGGTAATCCGTATTTGAG (site AAGCACGCTCA)",
    "assignedLabel": "class 2"
  },
  {
    "polymerSequence": "CGGACATCATGGACCGGTTTTCCCGGTAATCCGTATTTGCG (site CGGACATCTGG)",
    "assignedLabel": "class 0"
  },
  {
    "polymerSequence": "AATTATCCATGGACCGGTTTTCCCGGTAATCCGTATTTGCT (site AATTATCCTAG)",
    "assignedLabel": "class 2"
  },
  {
    "polymerSequence": "CCGTCGACATGGACCGGTTTTCCCGGTAATCCGTATTTGGG (site CGGTCGACTCC)",
    "assignedLabel": "class 1"
  }
]

### Prompt Could you place TTAGCGGCATGGACCGGTTTTCCCGGTAATCCGTATTTGCT (site TTCGCGGCTAG) in its proper category? Many thanks.
### Response class 0

### Prompt Could you place TTATGTCCATGGACCGGTTTTCCCGGTAATCCGTATTTGTC (site TTATGTCCTGA) in its proper category? Many thanks.
### Response class 1

### Prompt Kindly state the category for this sequence: CGGAAACCATGGACCGGTTTTCCCGGTAATCCGTATTTGCT (site CGGAAACCTAG)
### Response class 0

### Prompt Which of the defined bands does the recorded recombinant UMI read abundance (log10) of GGATCATCATGGACCGGTTTTCCCGGTAATCCGTATTTGAT (site GGATCATCTAT) sit within?
### Response class 0

### Prompt Sort into band: TATAGTCCATGGACCGGTTTTCCCGGTAATCCGTATTTGTA (site TAAAGTCCTTA)
### Response class 2

### Prompt For AGGAACACATGGACCGGTTTTCCCGGTAATCCGTATTTGCA (site AGGAATACTTG) , which recombinant UMI read abundance (log10) bin applies?
### Response class 1

### Prompt // return the class label for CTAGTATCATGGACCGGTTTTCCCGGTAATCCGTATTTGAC (site CGAGTATCTGC)
### Response class 0

### Prompt Each sequence maps to one class by recombinant UMI read abundance (log10). Which class for TAGTAATCATGGACCGGTTTTCCCGGTAATCCGTATTTGCG (site TAGTAATCTCG) ?
### Response class 2

### Prompt Which recombinant UMI read abundance (log10) band matches GTAGTTCCATGGACCGGTTTTCCCGGTAATCCGTATTTGGT (site GTAGTTCCTAC) ?
### Response class 2

### Prompt Bin this entry: ACTGTATCATGGACCGGTTTTCCCGGTAATCCGTATTTGAA (site ACAGTATCTTG)
### Response class 0

### Prompt Would you mind sorting AGTCACTCATGGACCGGTTTTCCCGGTAATCCGTATTTGCA (site AGTCACTCTTG) into the appropriate category?
### Response class 2

### Prompt // return the class label for CAGTTCCCATGGACCGGTTTTCCCGGTAATCCGTATTTGCT (site CAATTCCCTAG)
### Response class 2

These entries and their values trace back to the supplement of paper PMC11208160.
